Source of measurements: patent EP2345639A1

# System: doxorubicin-induced cerebral oxidative stress in mice
# test.name: In vivo assay of cerebral oxidative stress induced in mice by doxorubicin (model and oxidized animals)
# condition.context: Mus musculus, ip; oxidized mice; % inhibition relative to change due to doxorubicin alone; vs vehicle; read-out: Prot. Ox/pr vehicle
Would you kindly list change in vivo at 50 mg/kg for each of these compounds?
Numbers only, in %.

Before answering, review these 5 worked examples.
CC1(C)CC(=O)C(C2COCCN2O)C(=O)C1 (centres unmarked) :: -4.1
CC1(C)CC(=O)C(C2CCCCN2O)C(=O)C1 (centres unmarked) :: -45.9
O=C1CC(c2ccccc2)CC(=O)C1C1COCCN1O (centres unmarked) :: -15.7
CC1=NN(c2ccccc2)C(=O)C1 [edaravone, reference compound] :: -22.7
O=c1oc2ccccc2c(O)c1C1COCCN1O (centres unmarked) :: -32.6

Required: change in vivo at 50 mg/kg, one value per compound below.
1. CC1=NN(c2ccccc2)C(=O)C1C1COCCN1O (centres unmarked)
2. O=C1c2ccccc2C(=O)C1C1COCCN1O (centres unmarked)
3. O=C1CCC(=O)C1C1COCCN1O (centres unmarked)

Result ::
-69.8
-65.7
-22.1
